Attribution: ChEMBL document CHEMBL1150890

# Measured On: Prothrombin (Homo sapiens, UniProt P00734)
Starred links: 1 amine or outer side, 2 acyl side, 3 side chain; linkers in the order of their positions; H or OH if unused. Positions of bridges follow the written chain, without caps; N, C: chain ends. Non-standard residues stand in square brackets, D forms with d. Residues, ends and D or L forms follow the SMILES beside them. *: point of attachment. Arg(ψCOCO) = N=C(N)NCCC[C@H](N[*:1])C(=O)C(=O)[*:2]; X1 = O=C(/C=C/[C@H](Cc1ccc(O)cc1)N[*:1])[*:2]; aIle = CC[C@@H](C)[C@H](N)C(=O)O; Dap = NC[C@H](N)C(=O)O; PhAc = O=C(Cc1ccccc1)*
Value Kind: IC50 (nM)

Here are 2 compounds together with their reported answers.
CC[C@H](C)[C@H]1NC(=O)C(=O)[C@H](CCCNC(=N)N)NC(=O)[C@@H]2CCCN2C(=O)[C@@H](NC(=O)[C@H](C)NC(=O)c2ccccc2)CNC(=O)/C=C/[C@H](Cc2ccc(O)cc2)NC1=O [CYCLOTHEONAMIDE E2]	13
CC[C@@H](C)[C@@H]1NC(=O)C(=O)[C@H](CCCNC(=N)N)NC(=O)[C@@H]2CCCN2C(=O)[C@@H](NC(=O)[C@H](C)NC(=O)Cc2ccccc2)CNC(=O)/C=C/[C@H](Cc2ccc(O)cc2)NC1=O [CYCLOTHEONAMIDE E] (PhAc-A[Dap]P[Arg(ψCOCO)][aIle][X1]; lactam 2-C)	2.9

A = CC[C@H](C)[C@H]1NC(=O)C(=O)[C@H](CCCNC(=N)N)NC(=O)[C@@H]2CCCN2C(=O)[C@@H](NC(=O)[C@H](C)NC(=O)CC(C)C)CNC(=O)/C=C/[C@H](Cc2ccc(O)cc2)NC1=O [CYCLOTHEONAMIDE E3]
B = N=C(N)NCCC[C@@H]1NC(=O)[C@@H]2CCCN2C(=O)[C@@H](NC=O)CNC(=O)/C=C/[C@H](Cc2ccc(O)cc2)NC(=O)[C@@H](Cc2ccccc2)NC(=O)C1=O [CYCLOTHEONAMIDE A]
Returns the identifier with the smallest measured IC50 among A and B . Bench note: the answer is the label of the chosen record.
A
